// Ki lookup, one value per entry
# TEST_TARGET: Mcl-1 (Homo sapiens (Human), UniProt Q07820)
# Sequence (Q07820 172-327): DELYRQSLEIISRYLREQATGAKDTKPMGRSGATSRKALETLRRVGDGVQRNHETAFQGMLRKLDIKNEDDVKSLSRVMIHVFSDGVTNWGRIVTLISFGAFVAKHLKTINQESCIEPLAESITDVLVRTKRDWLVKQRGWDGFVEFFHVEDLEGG
# ASSAY: Fluorescence polarization anisotropy (FPA) competition assay, FITC-Bak or FITC-Bim BH3 peptide
# Assay type: binding
# EXPERIMENTAL_CONDITIONS: read-out: Ki for Inhibition of Mcl-1 by FPA assay

COMPOUND	Ki
Cc1cc(OCCCc2c3n(c4c(-c5c(C)nn(C)c5C)c(Cl)ccc24)[C@H](C)CN(c2cn(C)c4ccc(C5=NCCO5)cc24)C3=O)cc(C)c1Cl	2 nM

The compound identified as Cc1cccnc1Cn1c(C(=O)O)cc2cccc(N3C[C@@H](C)n4c(c(CCCOc5cc(C)c(Cl)c(C)c5)c5ccc(Cl)c(-c6c(C)nn(C)c6C)c54)C3=O)c21 registered its Ki at 2.1 nM

Sample Cc1cc(OCCCc2c3n(c4c(-c5c(C)nn(C)c5C)c(Cl)ccc24)[C@H](C)CN(c2cn(C)c4cc(F)c(C(=O)O)cc24)C3=O)cc(C)c1Cl [Example 355] ; Ki observed: 1 nM

The value of Ki measured for the compound COC(=O)c1cc2c(c(N3CCCn4c(c(CCCOc5cc(C)c(Cl)c(C)c5)c5ccc(Cl)c(-c6c(C)nn(C)c6C)c54)C3=O)c1)OCCO2 turned out to be < 1 nM

----------
# TEST_TARGET: UniProtKB Q07820
# ASSAY: Fluorescence polarization anisotropy (FPA) competition assay, FITC-Bak or FITC-Bim BH3 peptide
# Type: binding
# EXPERIMENTAL_CONDITIONS: read-out: Ki for Inhibition of Mcl-1 by FPA assay
MEASURED_PARAMETER: pKi
Notebook: values listed as pKi are -log10 of the concentration (mol/L).

SAMPLE_SMILES	TEST_TARGET	pKi
CC(=O)Nc1ccc2c(c1)c(N1C[C@@H](C)n3c(c(CCCOc4cc(C)c(Cl)c(C)c4)c4ccc(Cl)c(-c5c(C)nn(C)c5C)c43)C1=O)cn2C	UniProtKB Q07820	8.64
Cc1cc(OCCCc2c3n(c4c(-c5c(C)nn(C)c5C)c(Cl)ccc24)CCCN(c2cc(C(=O)O)c4c(cnn4C)c2)C3=O)cc(C)c1Cl	UniProtKB Q07820	8.82
Cc1cc(OCCCc2c3n(c4c(-c5c(C)nn(C)c5C)c(Cl)ccc24)[C@H](C)CN(c2cc(C(=O)O)cc4c2ccn4CCN2CCOCC2)C3=O)cc(C)c1Cl	UniProtKB Q07820	8.54

Measured on UniProtKB Q07820, Cc1cc(OCCCc2c3n(c4c(-c5c(C)nn(C)c5C)c(Cl)ccc24)[C@H](C)CN(c2cn(C)c4ccc(C(=O)NN)cc24)C3=O)cc(C)c1Cl has a documented pKi of 8.54

----------
# Tested on: H929 human cancer cell lines
# ASSAY: Cellular viability / proliferation (Cell TiterGlo, 72 h)
# Assay type: cell-based
# EXPERIMENTAL_CONDITIONS: Homo sapiens, NCI-H929, 72 h, read-out: GI50 on cellular proliferation of H929 human cancer cell lines, H929 cells, 72 h, Cell TiterGlo, 10% FBS
MEASURED_PARAMETER: GI50 (nM)
Reply with just the number (in nM).

Solved entries (count: 4):
SAMPLE_SMILES	READING_UNIT	GI50
Cc1cc(OCCCc2c3n(c4c(-c5c(C)nn(CCN6CCCC6)c5C)c(Cl)ccc24)[C@H](C)CN(c2cn(C)c4cc(C(=O)O)ccc24)C3=O)cc(C)c1Cl	nM	600
Cc1cc(OCCCc2c3n(c4c(-c5c(C)nn(C)c5C)c(Cl)ccc24)[C@H](C)CN(c2cn(C)c4ccc(-c5cccnn5)cc24)C3=O)cc(C)c1Cl	nM	1300
CCOCCn1c(C(=O)O)cc2cc(C)cc(N3C[C@@H](C)n4c(c(CCCOc5cc(C)c(Cl)c(C)c5)c5ccc(Cl)c(-c6c(C)nn(C)c6C)c54)C3=O)c21	nM	240
Cc1cc(OCCCc2c3n(c4c(-c5c(C)nn(C)c5C)c(Cl)ccc24)[C@H](C)CN(c2cc(C(=O)O)c4cnn(C)c4c2)C3=O)cc(C)c1Cl	nM	500

We next turn to a different compound, shown below.
For the compound Cc1cc(OCCCc2c3n(c4c(-c5c(C)nn(C)c5C)c(Cl)ccc24)[C@H](C)CN(c2cccc4c(C(=O)O)cn(Cc5ccccn5)c24)C3=O)cc(C)c1Cl , the measured GI50 on H929 human cancer cell lines was 260
